test system: 993429-296-R-J1-PDC complex spheroid growth, percent test/control; assay: Anticancer human tumor 993429-296-R-J1-PDC patient-derived uterine sarcoma cell line growth inhibition [Asc]; settings: curve of first compound; second compound 0.03 µM
Items are presented alongside their recorded pIC50.
API: returns pIC50 as number; meaning -log10 of concentration in mol/L.

>  <molecule>
Cc1nc(N2CCC3(CC2)COC(C)C3N)c(CO)nc1Sc1ccnc(N)c1Cl (stereo not given) + CCN1C(C(=O)NC23CCC(C(=O)O)(CC2)CC3)C(c2cccc(Cl)c2F)C2(C(=O)Nc3cc(Cl)ccc32)C12CCCCC2

>  <assay.target>
993429-296-R-J1-PDC complex spheroid growth, percent test/control

>  <pIC50>
6.68

$$$$
>  <molecule>
O=C(c1ccc(F)c(F)c1Nc1ccc(I)cc1F)N1CC(O)([C@@H]2CCCCN2)C1 + CCN1C(C(=O)NC23CCC(C(=O)O)(CC2)CC3)C(c2cccc(Cl)c2F)C2(C(=O)Nc3cc(Cl)ccc32)C12CCCCC2

>  <assay.target>
993429-296-R-J1-PDC complex spheroid growth, percent test/control

>  <pIC50>
7.37

$$$$
>  <molecule>
O=C(c1cc(Cc2n[nH]c(=O)c3ccccc23)ccc1F)N1CCN(C(=O)C2CC2)CC1 + CCN1C(C(=O)NC23CCC(C(=O)O)(CC2)CC3)C(c2cccc(Cl)c2F)C2(C(=O)Nc3cc(Cl)ccc32)C12CCCCC2

>  <assay.target>
993429-296-R-J1-PDC complex spheroid growth, percent test/control

>  <pIC50>
5.20

$$$$

Turning now to a further molecule:
Summary: NC(=O)C(=Cn1cnc(-c2cc(C(F)(F)F)cc(C(F)(F)F)c2)n1)c1cncnc1 + CCN1C(C(=O)NC23CCC(C(=O)O)(CC2)CC3)C(c2cccc(Cl)c2F)C2(C(=O)Nc3cc(Cl)ccc32)C12CCCCC2 , 993429-296-R-J1-PDC complex spheroid growth, percent test/control, pIC50 = 7.73

====

tested on: 993429-296-R-J1-PDC complex spheroid growth, percent test/control; assay: Anticancer human tumor 993429-296-R-J1-PDC cell line growth inhibition [Asc]; conditions: second compound 3.16 µM; first compound 0.0316 µM; stronger effect = lower value;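 note: spheroids exposed to compounds for seven days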
Attribute: viability, T/C
Report only the number, with the unit % understood.

Answered examples (5):
>  <compound>
C#Cc1c(F)ccc2cc(O)cc(-c3ncc4c(N5CC6CCC(C5)N6)nc(OCC56CCCN5CC(F)C6)nc4c3F)c12 (configuration not stated) + Cc1c(S(C)(=O)=O)c(-c2cc(F)cc(N3CCN(c4ccc(NS(=O)(=O)c5ccc(NC(CCN6CCC(C(=O)OCCCP(=O)(O)O)CC6)CSc6ccccc6)c(S(=O)(=O)C(F)(F)F)c5)cc4)CC3)c2)c(-c2ccc(Cl)cc2)n1C(C)C

>  <viability, T/C [%]>
53.6

$$$$
>  <compound>
COc1c(OCCCN2CCOCC2)ccc2c3n(c(=NC(=O)c4cnc(N)nc4)nc12)CCN3 + Cc1c(S(C)(=O)=O)c(-c2cc(F)cc(N3CCN(c4ccc(NS(=O)(=O)c5ccc(NC(CCN6CCC(C(=O)OCCCP(=O)(O)O)CC6)CSc6ccccc6)c(S(=O)(=O)C(F)(F)F)c5)cc4)CC3)c2)c(-c2ccc(Cl)cc2)n1C(C)C

>  <viability, T/C [%]>
14.8

$$$$
>  <compound>
C=CC(=O)N1CCN(c2nc(=O)n(-c3c(C)ccnc3C(C)C)c3nc(-c4c(O)cccc4F)c(F)cc23)C(C)C1 (configuration not stated) + Cc1c(S(C)(=O)=O)c(-c2cc(F)cc(N3CCN(c4ccc(NS(=O)(=O)c5ccc(NC(CCN6CCC(C(=O)OCCCP(=O)(O)O)CC6)CSc6ccccc6)c(S(=O)(=O)C(F)(F)F)c5)cc4)CC3)c2)c(-c2ccc(Cl)cc2)n1C(C)C

>  <viability, T/C [%]>
51.1

$$$$
>  <compound>
CNC(C)C(=O)NC1CN(S(=O)(=O)c2cccc(S(=O)(=O)N3CCC4CCC(C(=O)NC(c5ccccc5)c5ccccc5)N4C(=O)C(NC(=O)C(C)NC)C3)c2)CCC2CCC(C(=O)NC(c3ccccc3)c3ccccc3)N2C1=O (configuration not stated) + Cc1c(S(C)(=O)=O)c(-c2cc(F)cc(N3CCN(c4ccc(NS(=O)(=O)c5ccc(NC(CCN6CCC(C(=O)OCCCP(=O)(O)O)CC6)CSc6ccccc6)c(S(=O)(=O)C(F)(F)F)c5)cc4)CC3)c2)c(-c2ccc(Cl)cc2)n1C(C)C

>  <viability, T/C [%]>
29.4

$$$$
>  <compound>
O=C(c1ccc(F)c(F)c1Nc1ccc(I)cc1F)N1CC(O)([C@@H]2CCCCN2)C1 + Cc1c(S(C)(=O)=O)c(-c2cc(F)cc(N3CCN(c4ccc(NS(=O)(=O)c5ccc(NC(CCN6CCC(C(=O)OCCCP(=O)(O)O)CC6)CSc6ccccc6)c(S(=O)(=O)C(F)(F)F)c5)cc4)CC3)c2)c(-c2ccc(Cl)cc2)n1C(C)C

>  <viability, T/C [%]>
21.1

$$$$

// recorded viability, T/C for C=C(F)C(=O)N1CCN(c2nc(OCC3CCCN3C)nc3c2CCN(c2cccc4cccc(Cl)c24)C3)CC1CC#N (configuration not stated) + Cc1c(S(C)(=O)=O)c(-c2cc(F)cc(N3CCN(c4ccc(NS(=O)(=O)c5ccc(NC(CCN6CCC(C(=O)OCCCP(=O)(O)O)CC6)CSc6ccccc6)c(S(=O)(=O)C(F)(F)F)c5)cc4)CC3)c2)c(-c2ccc(Cl)cc2)n1C(C)C : 46.9

GET /value?item= CCN1CCN(Cc2ccc(Nc3ncc(F)c(-c4cc(F)c5nc(C)n(C(C)C)c5c4)n3)nc2)CC1 + Cc1c(S(C)(=O)=O)c(-c2cc(F)cc(N3CCN(c4ccc(NS(=O)(=O)c5ccc(NC(CCN6CCC(C(=O)OCCCP(=O)(O)O)CC6)CSc6ccccc6)c(S(=O)(=O)C(F)(F)F)c5)cc4)CC3)c2)c(-c2ccc(Cl)cc2)n1C(C)C &field=viability, T/C returns 46.6

====

test system: 993429-296-R-J1-PDC complex spheroid growth, percent test/control; experiment: Anticancer human tumor 993429-296-R-J1-PDC cell line growth inhibition [Asc]; conditions: second compound 0.0949 µM; first compound 0.1 µM; stronger effect = lower value;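 note: spheroids exposed to compounds for seven days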
reported.endpoint: viability, T/C (%)
# value in %; strip the unit string

>  <molecule>
C=C(F)C(=O)N1CCN(c2nc(OCC3CCCN3C)nc3c2CCN(c2cccc4cccc(Cl)c24)C3)CC1CC#N (configuration not stated) + CCN1C(C(=O)NC23CCC(C(=O)O)(CC2)CC3)C(c2cccc(Cl)c2F)C2(C(=O)Nc3cc(Cl)ccc32)C12CCCCC2

>  <reported.endpoint>
viability, T/C

>  <measured.value>
98.2

$$$$

Consider the record given below.
For CCN1CCN(Cc2ccc(Nc3ncc(F)c(-c4cc(F)c5nc(C)n(C(C)C)c5c4)n3)nc2)CC1 + CCN1C(C(=O)NC23CCC(C(=O)O)(CC2)CC3)C(c2cccc(Cl)c2F)C2(C(=O)Nc3cc(Cl)ccc32)C12CCCCC2 the molecule record lists viability, T/C as 95.5

====

Test system: 993429-296-R-J1-PDC complex spheroid growth, percent test/control
Assay: Anticancer human tumor 993429-296-R-J1-PDC cell line growth inhibition [Asc]; active means viability on the fitted dose curve at most 10% of control; inactive means the rest;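 note: spheroids exposed to compounds for seven days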
Settings: second compound 1 µM; first compound 10 µM
From the text: Multicellular complex tumor spheroid response to apoptosis pathway targeting inhibitors Alrizomadlin, Pelcitoclax, and Dasminapant in combination with a variety of drugs and investigational agents in selected tumor cell lines […] Compounds. […] If the clinical Cmax for an agent had not been determined, the highest concentration tested was 10 microM. […]
Write down the outcome that applies. Available outcomes: active, inactive

Would you please look over these solved cases?
>  <compound>
C#Cc1c(F)ccc2cc(O)cc(-c3ncc4c(N5CC6CCC(C5)N6)nc(OCC56CCCN5CC(F)C6)nc4c3F)c12 (stereo not drawn) + Cc1c(S(C)(=O)=O)c(-c2cc(F)cc(N3CCN(c4ccc(NS(=O)(=O)c5ccc(NC(CCN6CCC(C(=O)OCCCP(=O)(O)O)CC6)CSc6ccccc6)c(S(=O)(=O)C(F)(F)F)c5)cc4)CC3)c2)c(-c2ccc(Cl)cc2)n1C(C)C

>  <assay.target>
993429-296-R-J1-PDC complex spheroid growth, percent test/control

>  <group.label>
active

$$$$
>  <compound>
C=C(F)C(=O)N1CCN(c2nc(OCC3CCCN3C)nc3c2CCN(c2cccc4cccc(Cl)c24)C3)CC1CC#N (stereo not drawn) + CNC(C)C(=O)NC1CN(S(=O)(=O)c2cccc(S(=O)(=O)N3CCC4CCC(C(=O)NC(c5ccccc5)c5ccccc5)N4C(=O)C(NC(=O)C(C)NC)C3)c2)CCC2CCC(C(=O)NC(c3ccccc3)c3ccccc3)N2C1=O

>  <assay.target>
993429-296-R-J1-PDC complex spheroid growth, percent test/control

>  <group.label>
active

$$$$
>  <compound>
C=C(F)C(=O)N1CCN(c2nc(OCC3CCCN3C)nc3c2CCN(c2cccc4cccc(Cl)c24)C3)CC1CC#N (stereo not drawn) + Cc1c(S(C)(=O)=O)c(-c2cc(F)cc(N3CCN(c4ccc(NS(=O)(=O)c5ccc(NC(CCN6CCC(C(=O)OCCCP(=O)(O)O)CC6)CSc6ccccc6)c(S(=O)(=O)C(F)(F)F)c5)cc4)CC3)c2)c(-c2ccc(Cl)cc2)n1C(C)C

>  <assay.target>
993429-296-R-J1-PDC complex spheroid growth, percent test/control

>  <group.label>
active

$$$$

IN: What did this assay record as the result for O=C(c1cc(Cc2n[nH]c(=O)c3ccccc23)ccc1F)N1CCN(C(=O)C2CC2)CC1 + CNC(C)C(=O)NC1CN(S(=O)(=O)c2cccc(S(=O)(=O)N3CCC4CCC(C(=O)NC(c5ccccc5)c5ccccc5)N4C(=O)C(NC(=O)C(C)NC)C3)c2)CCC2CCC(C(=O)NC(c3ccccc3)c3ccccc3)N2C1=O ?
OUT: inactive
